Assign Ratio IC50 to each entry below.
organism: Homo sapiens; assay: Selectivity ratio of IC50 for human full length PI3Kgamma to IC50 for human full length PI3Kdelta catalytic subunit/p85alpha
Give bare numbers.

[
  {
    "compound": "C[C@H](Nc1nc(N)nc(N)c1C#N)c1nc2c(C#N)cccc2c(=O)n1-c1cc(F)cc(F)c1",
    "endpoint_label": "Ratio IC50",
    "experimental_value": 800
  }
]

We next turn to a different molecule, shown below.
**Q:** Indicate the recorded Ratio IC50 value for this molecule: `C[C@H](Nc1nc(Cl)nc(N)c1C#N)c1nc2cccc(Cl)c2c(=O)n1-c1ccccc1`
**A:** 37
